Data provenance is patent US20250353873A1.

test system: human APOE RNA; test: Dose-dependent inhibition of human APOE RNA in HepG2 cells, electroporation, 50,000 cells per well, RT-PCR normalized to GAPDH (Example 4, Tables 8-10); assay type: cell-based; settings: HepG2 cells, electroporation, 24-hour treatment, 1,280 nM, Table 8
Strand notation (5' to 3'): a small letter for the sugar, then the base; units joined by * are phosphorothioate-linked, units joined directly phosphodiester-linked; [ ] holds rarer units or linkages, { } end groups; capitals alone tell only the bases. [ms] = mesyl phosphoramidate linkage; e = 2'-O-(2-methoxyethyl) (MOE); k = constrained ethyl (cEt); [5mC] = 5-methylcytosine; d = 2'-deoxy (DNA)
measurement.name: APOE RNA (% UTC) 1,280 nM

substance: 1785599: modified oligonucleotide complementary to human APOE RNA (k[5mC]*kT*kT*dG[ms]dG[ms]dT[ms]dG[ms]dA[ms]dA[ms]dT[ms]d[5mC]*dT*dT*dT*dA*dT*kT*kA*dA[ms]kA; antisense) [compound 1785599]
measurement.name: APOE RNA (% UTC) 1,280 nM
value: 43

substance: ^mCksTksTksGdzGdzTdzGdzAdzAdzTds^mCdsTdsTdsTdsAdsTdsTksAksAdzAk (antisense k[5mC]*kT*kT*dG[ms]dG[ms]dT[ms]dG[ms]dA[ms]dA[ms]dT*d[5mC]*dT*dT*dT*dA*dT*kT*kA*dA[ms]kA) [Compound No. 1785602]
measurement.name: APOE RNA (% UTC) 1,280 nM
value: 18

substance: 1778123: modified oligonucleotide complementary to human APOE RNA (eA*e[5mC]eTeTeG*eG*dT*dG[ms]dA[ms]dA*dT*d[5mC]*dT*dT*dT*dA[ms]kTkT*eA*eA; antisense) [compound 1778123]
measurement.name: APOE RNA (% UTC) 1,280 nM
value: 25

substance: 1778127: modified oligonucleotide complementary to human APOE RNA (eA*e[5mC]eTeTkGkG*dT*dG[ms]dA[ms]dA*dT*d[5mC]*dT*dT*dT*dA[ms]kTeT[ms]eA[ms]eA; antisense) [compound 1778127]
measurement.name: APOE RNA (% UTC) 1,280 nM
value: 30

substance: 1778129: modified oligonucleotide complementary to human APOE RNA (eA*e[5mC]eTeTeG*kG*dT*dG[ms]dA[ms]dA*dT*d[5mC]*dT*dT*dT*dA[ms]kT*kT*eA*eA; antisense) [compound 1778129]
measurement.name: APOE RNA (% UTC) 1,280 nM
value: 29

substance: 1778125: modified oligonucleotide complementary to human APOE RNA (eA*e[5mC]eTeTeGeG*dT*dG[ms]dA[ms]dA*dT*d[5mC]*dT*dT*dT*dA[ms]kTkT*eA*eA; antisense) [compound 1778125]
measurement.name: APOE RNA (% UTC) 1,280 nM
value: 22

substance: 1785617: modified oligonucleotide complementary to human APOE RNA (k[5mC]*dT[ms]dT[ms]kG*dG[ms]kT*dG[ms]dA[ms]dA[ms]dT[ms]d[5mC]*dT*dT*dT*dA*dT*kT*kA*dA[ms]kA; antisense) [compound 1785617]
measurement.name: APOE RNA (% UTC) 1,280 nM
value: 47

substance: 1778128: modified oligonucleotide complementary to human APOE RNA (eA*e[5mC]eTeTkGkG*dT*dG[ms]dA[ms]dA*dT*d[5mC]*dT*dT*dT*dA[ms]kTeT*eA*eA; antisense) [compound 1778128]
measurement.name: APOE RNA (% UTC) 1,280 nM
value: 22

---

system: human APOE RNA; experiment: Activity in APOE C57BL/6NTac-Apoeem7250 knock-in mice, single ICV bolus, 16 weeks (Example 12); type: in vivo; settings: cortex; single ICV bolus 300 μg; 16 weeks post treatment; normalized to mouse Ppia
Strand notation (5' to 3'): a small letter for the sugar, then the base; units joined by * are phosphorothioate-linked, units joined directly phosphodiester-linked; [ ] holds rarer units or linkages, { } end groups; capitals alone tell only the bases. [ms] = mesyl phosphoramidate linkage; e = 2'-O-(2-methoxyethyl) (MOE); k = constrained ethyl (cEt); [5mC] = 5-methylcytosine; d = 2'-deoxy (DNA)
Measured APOE RNA (% control) Cortex, listed per entry.

substance: Aes^mCeoTeoTesGesGksTdsGdzAdzAdzTds^mCdsTdsTdsTdsAdzTksTksAesAe (eA*e[5mC]eTeT*eG*kG*dT*dG[ms]dA[ms]dA[ms]dT*d[5mC]*dT*dT*dT*dA[ms]kT*kT*eA*eA) [Compound No. 1757576]
quantity.unit: % control
APOE RNA (% control) Cortex: 45
//
substance: 1693085: 6-10-4 MOE gapmer TTGGTGAATCTTTATTAAAC, linkages ssssszzzsssszzsssss (eT*eT*eG*eG*eT*eG[ms]dA[ms]dA[ms]dT*d[5mC]*dT*dT*dT[ms]dA[ms]dT*dT*eA*eA*eA*e[5mC]) [compound 1693085]
quantity.unit: % control
APOE RNA (% control) Cortex: 93
//
substance: 1693142: 6-10-4 MOE gapmer ACTTGGTGAATCTTTATTAA, linkages sssoosszzzssssszsss (eA*e[5mC]*eT*eTeGeG*dT*dG[ms]dA[ms]dA[ms]dT*d[5mC]*dT*dT*dT*dA[ms]eT*eT*eA*eA) [compound 1693142]
quantity.unit: % control
APOE RNA (% control) Cortex: 98
//
substance: 1693105: 6-10-4 MOE gapmer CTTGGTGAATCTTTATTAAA, linkages sosssszzzssssszssss (e[5mC]*eTeT*eG*eG*eT*dG[ms]dA[ms]dA[ms]dT*d[5mC]*dT*dT*dT*dA[ms]dT*eT*eA*eA*eA) [compound 1693105]
quantity.unit: % control
APOE RNA (% control) Cortex: 65

---

system: human APOE RNA; test: Dose-dependent inhibition of human APOE RNA in differentiated SH-SY5Y cells, free uptake, 5 days (Example 5); type: cell-based; settings: 82 nM, 5 days (Table 14)
Strand notation (5' to 3'): a small letter for the sugar, then the base; units joined by * are phosphorothioate-linked, units joined directly phosphodiester-linked; [ ] holds rarer units or linkages, { } end groups; capitals alone tell only the bases. [ms] = mesyl phosphoramidate linkage; e = 2'-O-(2-methoxyethyl) (MOE); k = constrained ethyl (cEt); [5mC] = 5-methylcytosine; d = 2'-deoxy (DNA)
Measured APOE RNA (% UTC), listed per entry.

substance: 1785599: modified oligonucleotide complementary to human APOE RNA (k[5mC]*kT*kT*dG[ms]dG[ms]dT[ms]dG[ms]dA[ms]dA[ms]dT[ms]d[5mC]*dT*dT*dT*dA*dT*kT*kA*dA[ms]kA; antisense) [compound 1785599]
system.name: human APOE RNA
APOE RNA (% UTC): 60
--
substance: 1785598: modified oligonucleotide complementary to human APOE RNA (k[5mC]*kT*kT*dG[ms]dG[ms]dT[ms]dG[ms]dA[ms]dA[ms]dT*d[5mC]*dT*dT*dT*dA*dT[ms]kT*kA*dA[ms]kA; antisense) [compound 1785598]
system.name: human APOE RNA
APOE RNA (% UTC): 57
--
substance: 1778111: modified oligonucleotide complementary to human APOE RNA (eA*e[5mC]eTeTeG*kG*dT*dG[ms]dA[ms]dA*dT*d[5mC]*dT*dT*dT*dA[ms]eTeT*eA*eA; antisense) [compound 1778111]
system.name: human APOE RNA
APOE RNA (% UTC): 41
--
substance: 1746784 (k[5mC]*kT*kT*dG[ms]dG[ms]dT[ms]dG[ms]dA[ms]dA[ms]dT*d[5mC]*dT*dT*dT*dA[ms]dT*kT*kA*dA[ms]kA; antisense) [Compound 1746784]
system.name: human APOE RNA
APOE RNA (% UTC): 61

---

Measured APOE RNA (% control) Cortex, listed per entry.
system: human APOE RNA; assay: Activity in APOE C57BL/6NTac-Apoeem7250 knock-in mice, single ICV bolus, 8 weeks (Example 11); type: in vivo; conditions: cortex; single ICV bolus 300 μg; 8 weeks post treatment; normalized to mouse Ppia
Strand notation (5' to 3'): a small letter for the sugar, then the base; units joined by * are phosphorothioate-linked, units joined directly phosphodiester-linked; [ ] holds rarer units or linkages, { } end groups; capitals alone tell only the bases. [ms] = mesyl phosphoramidate linkage; e = 2'-O-(2-methoxyethyl) (MOE); k = constrained ethyl (cEt); [5mC] = 5-methylcytosine; d = 2'-deoxy (DNA)

substance: 1652909: 5-10-5 MOE gapmer GGTGAATCTTTATTAAACTA, linkages soooszzzzssssssooss (antisense eG*eGeTeGeA*dA[ms]dT[ms]d[5mC][ms]dT[ms]dT*dT*dA*dT*dT*dA*eAeAe[5mC]*eT*eA) [compound 1652909]
quantity.unit: % control
APOE RNA (% control) Cortex: 55

substance: 1681021: 5-10-5 MOE gapmer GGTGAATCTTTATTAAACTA, linkages zsssszsssszzssssssz (antisense eG[ms]eG*eT*eG*eA*dA[ms]dT*d[5mC]*dT*dT*dT[ms]dA[ms]dT*dT*dA*eA*eA*e[5mC]*eT[ms]eA) [compound 1681021]
quantity.unit: % control
APOE RNA (% control) Cortex: 55

substance: 1778131: modified oligonucleotide complementary to human APOE RNA (eA*e[5mC]eTeTeGkG*dT*dG[ms]dA[ms]dA*dT*d[5mC]*dT*dT*dT*dA[ms]kTkT*eA*eA; antisense) [compound 1778131]
quantity.unit: % control
APOE RNA (% control) Cortex: 29

substance: TezTeoGeoGksTdsGdzAdzAdzTds^mCdsTdsTdsTdsAdzTksTksAesAesAes^mCe (antisense eT[ms]eTeGkG*dT*dG[ms]dA[ms]dA[ms]dT*d[5mC]*dT*dT*dT*dA[ms]kT*kT*eA*eA*eA*e[5mC]) [Compound No. 1809814]
quantity.unit: % control
APOE RNA (% control) Cortex: 36

substance: 1693039: 5-10-5 MOE gapmer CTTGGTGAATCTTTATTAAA, linkages sssosszzzssssssooss (antisense e[5mC]*eT*eT*eGeG*dT*dG[ms]dA[ms]dA[ms]dT*d[5mC]*dT*dT*dT*dA*eTeTeA*eA*eA) [compound 1693039]
quantity.unit: % control
APOE RNA (% control) Cortex: 90

substance: 1809744: mixed MOE/cEt gapmer CTTGGTGAATCTTTATTAAAC, sugar eeeekkddddddddddeeeee, linkages zsoooszzsssssszsoosz (e[5mC][ms]eT*eTeGkGkT*dG[ms]dA[ms]dA*dT*d[5mC]*dT*dT*dT*dA[ms]dT*eTeAeA*eA[ms]e[5mC]) [compound 1809744]
quantity.unit: % control
APOE RNA (% control) Cortex: 19

substance: 1693051: 5-10-5 MOE gapmer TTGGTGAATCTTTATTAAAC, linkages ssosszzzsssssssosss (antisense eT*eT*eGeG*eT*dG[ms]dA[ms]dA[ms]dT*d[5mC]*dT*dT*dT*dA*dT*eTeA*eA*eA*e[5mC]) [compound 1693051]
quantity.unit: % control
APOE RNA (% control) Cortex: 114
